Assay: NCI Yeast Anticancer Drug Screen. Data for the cln2 rad14 strain (AID 165);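 further: 0% = growth equal to vehicle treated cultures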
Conditions: S. cerevisiae cln2 rad14 strain, at 50.0 µM (retest, dose inferred, filed as 5.0)
This is part of a sample that, as a whole, favours compounds with a hit. Of some 79,000 tested, about 15% had one in any assay. Active and inactive are the calls of the source. No stated cut-off is given here; in the data, active means growth inhibition above about 70%; inactive means the rest.
Reply using exactly one outcome from yes (1) for active, no (0) for inactive

stdin: Call for entry CCn1c(O)c(C=Nc2ccccc2)s/c1=N/Nc1nc(-c2ccccc2)cs1 :
stdout: no (0)

stdin: Hi, sorry to bother you, what did the test record for O=c1nc2n(Cc3ccccc3)c3ccccc3nc-2c(=O)[nH]1 ?
stdout: no (0)

stdin: Give the logged outcome of this assay for the following molecule: Cc1cc2c3ccccc3c3ccccc3c2nn1
stdout: no (0)

stdin: I'd appreciate the recorded outcome for Cc1cccc[n+]1C1CCc2c(ccc3ccccc23)C1=O (stereo not drawn) from this test.
stdout: no (0)

stdin: Record lookup: outcome of this test for CNC(=O)OCc1c(COC(=O)NC)c2n(c1C)-c1ccc(OC)cc1CCC2 ?
stdout: yes (1)

stdin: // return assay outcome for O=C1CC(=O)c2ccccc21
stdout: no (0)

stdin: Hi, sorry to bother you, what did the test record for CC1=C(C(=O)NCc2ccccc2)C(c2ccccc2)C(C(=O)NCc2ccccc2)=C(C)N1 ?
stdout: no (0)

stdin: Dear all, I need the recorded test outcome for CN1CCN(C(=O)/C=C/C(=O)c2ccccc2)CC1 , thank you.
stdout: no (0)

stdin: // return assay outcome for C[C@@](O)(/C=C/[C@H]1CC=CC(=O)O1)[C@@H](C[C@@H](O)\C=C/C=C\C=C\CO)OP(=O)(O)O
stdout: no (0)

stdin: I'd appreciate the recorded outcome for O=C(O)Cc1cc(F)ccc1C(=O)O from this test.
stdout: no (0)

stdin: What call does the record list for S=c1sc2c(s1)SCCS2 ?
stdout: no (0)

stdin: Please state the recorded outcome for this molecule: NC1CCCCC1N.Nc1c(N=Nc2ccc(-c3ccc(N=Nc4cc(S(=O)(=O)[O-])c5ccccc5c4N)cc3)cc2)cc(S(=O)(=O)[O-])c2ccccc12.[OH3+].[OH3+].[Pt+4]
stdout: yes (1)

stdin: Look up the recorded call for CCCCCOC(=S)SC(=O)OCC in this test.
stdout: no (0)

Hey, just so you know, these numbers are from PubChem BioAssay (NCI).
